ASSAY_TEXT: Biodistribution of technetium-labelled peptides
Type: in vivo, CD1 mice
ASSAY_SETUP: CD1, muscle, iv, 80 ug/mouse, total radioactivity; 80 μg/mouse; 2 min; read-out: injected activity in Muscle
VALUE_TYPE: tissue uptake at 2 min (%ID/g)

1) CSCC[C@H](NC(=O)[C@H](Cc1ccccc1)NC(=O)[C@H](CC(C)C)NC(=O)[C@H](CCCCN)NC(=O)CCCN(CCN)CCn1nc(C)c(CC(=O)O)c1C)C(=O)N[C@@H](C)C(=O)N[C@@H](CC(C)C)C(=O)N[C@H](C(=O)N[C@@H](C)C(=O)N[C@@H](Cc1ccccc1)C(=O)N[C@@H](CC(C)C)C(=O)N[C@@H](CCCNC(=N)N)C(=O)N[C@@H](Cc1ccccc1)C(=O)N[C@@H](CC(C)C)C(=O)N[C@H](C(=O)O)[C@@H](C)O)C(C)C [^99mTc(CO)3-Pz^1-pepH2, metal not drawn]
0.61

All values here come from patent US10654917B2.
